Can you tell me IC50 for the items I'm about to list?
measured_target: Induced myeloid leukemia cell differentiation protein Mcl-1 (Homo sapiens) (UniProt Q07820)
Sequence (Q07820 whole entry, looked up): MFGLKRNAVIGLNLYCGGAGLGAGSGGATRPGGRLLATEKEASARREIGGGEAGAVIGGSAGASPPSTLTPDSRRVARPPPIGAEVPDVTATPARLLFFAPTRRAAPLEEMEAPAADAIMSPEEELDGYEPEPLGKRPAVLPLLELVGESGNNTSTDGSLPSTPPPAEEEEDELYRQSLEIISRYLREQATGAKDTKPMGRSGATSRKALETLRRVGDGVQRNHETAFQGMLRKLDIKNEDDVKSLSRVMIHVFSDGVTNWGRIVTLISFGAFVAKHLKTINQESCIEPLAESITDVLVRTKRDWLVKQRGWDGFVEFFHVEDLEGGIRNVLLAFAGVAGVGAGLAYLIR
test_method_notes: Mcl-1/Noxa binding inhibitor potency, dose response, biochemical, TR-FRET (AID 1417)
test_context: Mcl-1/Noxa peptide interaction, cell-free TR-FRET (terbium/rhodamine), 2 h; measured here: absolute IC50

# input Please indicate IC50 recorded for CC(=O)C1=C(S(=O)(=O)c2ccc(C)cc2)CS(=O)(=O)C1
# output < 0.4 µM

# input Please indicate IC50 recorded for COc1ccc(N2CCC(CNC(=O)Nc3ccccc3)C2)cc1 (stereo not drawn)
# output < 0.4 µM

# input Please indicate IC50 recorded for O=C1NC(=S)N/C1=C/c1cccn1-c1ccc([N+](=O)[O-])cc1
# output > 54 µM

# input Please indicate IC50 recorded for CCN(CC)c1ccc(NC(=O)CCCOc2cccc(C)c2)cc1
# output > 54 µM

# input Please indicate IC50 recorded for CCc1ccc2nc3sc(C(=O)Nc4nnc(CC)s4)c(N)c3cc2c1
# output > 54 µM

# input Please indicate IC50 recorded for O=C(O)c1cc(-c2ccc(/C=C3\NC(=O)N(c4ccccc4)C3=O)o2)ccc1Cl
# output > 54 µM

# input Please indicate IC50 recorded for CCCCn1c(SCC(=O)NCCOC)nc2ccc(N3CCOCC3)cc2c1=O
# output > 54 µM

# input Please indicate IC50 recorded for COc1ccccc1N1C(=O)C2ON(c3ccccc3)C(c3ccc(N(C)C)cc3)C2C1=O (stereo not drawn)
# output > 54 µM

###

measured_target: Induced myeloid leukemia cell differentiation protein Mcl-1 (Homo sapiens) (UniProt Q07820)
test_method_notes: Mcl-1/Noxa binding inhibitor potency, dose response, biochemical, TR-FRET (AID 1417)
test_context: Mcl-1/Noxa peptide interaction, cell-free TR-FRET (terbium/rhodamine), 2 h; measured here: absolute IC50
pIC50: −log10 of the molar value.
Can you tell me pIC50 for the items I'm about to list?

# input Please indicate pIC50 recorded for O=C(Nc1cccc(S(=O)(=O)NC2=NCCC2)c1)c1cc(-c2ccco2)nc2ccccc12
# output > 6.40

# input Please indicate pIC50 recorded for CSc1nc(N(C)CCO)c2sc3nc(-c4ccco4)c4c(c3c2n1)CCC4
# output > 6.40

# input Please indicate pIC50 recorded for C=CCOc1c(OC)cc(/C=N/Nc2cccc(C(=O)O)c2)c(Br)c1Br
# output < 4.27

# input Please indicate pIC50 recorded for COc1ccc(O)c(C(=O)c2cc(SCC(=O)O)c3nc4sc5c(c4c(=O)n3c2)CCCC5)c1
# output > 6.40

# input Please indicate pIC50 recorded for COc1cc(NS(=O)(=O)c2ccc(NC(=S)NC(=O)c3sc4cc(F)ccc4c3Cl)cc2)nc(OC)n1
# output < 4.27

# input Please indicate pIC50 recorded for COC(=O)c1ccc(CSc2nc(-c3ccccc3)cs2)o1
# output < 4.27

# input Please indicate pIC50 recorded for Cn1c(=O)c2c(nc(NCc3ccco3)n2CC(O)COc2ccccc2)n(C)c1=O (stereo not drawn)
# output < 4.27

# input Please indicate pIC50 recorded for Cc1cc(C)c(S(=O)(=O)NCc2cn3c(C)csc3n2)cc1C
# output < 4.27

###

Can you tell me pIC50 for the items I'm about to list?
measured_target: Induced myeloid leukemia cell differentiation protein Mcl-1 (Homo sapiens)
test_method_notes: Mcl-1/Noxa binding inhibitor potency, dose response, biochemical, TR-FRET (AID 1417)
test_context: Mcl-1/Noxa peptide interaction, cell-free TR-FRET (terbium/rhodamine), 2 h; measured here: absolute IC50
pIC50: −log10 of the molar value.

# input Please indicate pIC50 recorded for Cn1c(N)c(C(=O)COC(=O)c2cc(-c3ccco3)nc3ccccc23)c(=O)n(Cc2ccccc2)c1=O
# output > 6.40

# input Please indicate pIC50 recorded for COc1ccc(-n2c(N)c(-c3nc4ccccc4n3C)sc2=S)cc1
# output < 4.27

# input Please indicate pIC50 recorded for Oc1cc2c(cc1O)C1c3ccc(O)c(O)c3OCC1(O)C2 (stereo unspecified)
# output > 6.40

# input Please indicate pIC50 recorded for O=C(OCC1O[C@@H](OC(=O)c2cc(O)c(O)c(O)c2)[C@@H](OC(=O)c2cc(O)c(O)c(O)c2)[C@@H](OC(=O)c2cc(O)c(O)c(O)c2)[C@@H]1OC(=O)c1cc(O)c(O)c(O)c1)c1cc(O)c(O)c(O)c1 (stereo partly specified)
# output > 6.40

# input Please indicate pIC50 recorded for Cc1ccc2c(c1)C1CN(C)CCC1N2C(=O)Nc1cccc(Cl)c1 (stereo unspecified)
# output < 4.27

# input Please indicate pIC50 recorded for N#C/C(=C/c1ccc(OCc2ccc(C(=O)O)cc2)c(Br)c1)c1cccc(F)c1
# output > 6.40

# input Please indicate pIC50 recorded for O=C(O)COc1ccccc1C(Nc1cccnc1)c1cc(Cl)c2cccnc2c1O (stereo unspecified)
# output > 6.40

# input Please indicate pIC50 recorded for O=C(O)CCc1nc(-c2cccs2)no1
# output < 4.27

# input Please indicate pIC50 recorded for COc1ccccc1C1NC=C([N+](=O)[O-])C=C1[N+](=O)[O-] (stereo unspecified)
# output < 4.27

# input Please indicate pIC50 recorded for CC1=C(C#N)C(=O)NC(=O)/C1=C/c1ccc(-c2ccc(S(N)(=O)=O)cc2)o1
# output > 6.40

# input Please indicate pIC50 recorded for O=C1Nc2ccccc2/C1=N/N=C/c1ccc(-c2ccc([N+](=O)[O-])cc2)o1
# output > 6.40

Values were extracted from PubChem BioAssay AID1417.
